Just for reference, ChEMBL document CHEMBL3297697 is where these values come from.

assay: AUC in Sprague-Dawley rat at 1 mg/kg, iv by LC-MS/MS analysis; format: ADME, organism-based; set-up: dose 1 mg/kg, route intravenous; details: plasma
property: AUC (µM·h)
Hi! Could you send only the number? It should be in µM·h, unit omitted.

**Query** I have this compound here, CN(C)CC[C@@H](c1ccccc1)n1cc(NC(=O)c2n[nH]c3c2CCC(C)(C)C3)cn1 , and I need its recorded AUC.
**Result** 0.6

----------
test: Oral bioavailability in beagle dog at 5 mg/kg by LC-MS/MS analysis; assay type: ADME, organism-based, Canis lupus familiaris; settings: in vivo
property: bioavailability (%)
Hi! Could you send only the number? It should be in %, unit omitted.

**Query** I have this compound here, CN(C)CC[C@@H](c1ccccc1)n1cc(NC(=O)c2n[nH]c3c2CCC(C)(C)C3)cn1 , and I need its recorded bioavailability.
**Result** 100

----------
experiment: AUC in BALB/c mouse at 1 mg/kg, iv by LC-MS/MS analysis; type: ADME, organism-based; parameters: dose 1 mg/kg, route intravenous; conditions: plasma
property: AUC (µM·h)
Hi! Could you send only the number? It should be in µM·h, unit omitted.

**Query** I have this compound here, CN(C)CC[C@@H](c1ccccc1)n1cc(NC(=O)c2n[nH]c3c2CCC(C)(C)C3)cn1 , and I need its recorded AUC.
**Result** 1.5

----------
test: Half life in beagle dog at 1 mg/kg, iv by LC-MS/MS analysis; assay type: ADME, organism-based, Canis lupus familiaris; design: dose 1 mg/kg, route intravenous; conditions: in vivo
property: half-life (h)
Hi! Could you send only the number? It should be in h, unit omitted.

**Query** I have this compound here, CN(C)CC[C@@H](c1ccccc1)n1cc(NC(=O)c2n[nH]c3c2CCC(C)(C)C3)cn1 , and I need its recorded half-life.
**Result** 5.4

----------
Sequence of the target: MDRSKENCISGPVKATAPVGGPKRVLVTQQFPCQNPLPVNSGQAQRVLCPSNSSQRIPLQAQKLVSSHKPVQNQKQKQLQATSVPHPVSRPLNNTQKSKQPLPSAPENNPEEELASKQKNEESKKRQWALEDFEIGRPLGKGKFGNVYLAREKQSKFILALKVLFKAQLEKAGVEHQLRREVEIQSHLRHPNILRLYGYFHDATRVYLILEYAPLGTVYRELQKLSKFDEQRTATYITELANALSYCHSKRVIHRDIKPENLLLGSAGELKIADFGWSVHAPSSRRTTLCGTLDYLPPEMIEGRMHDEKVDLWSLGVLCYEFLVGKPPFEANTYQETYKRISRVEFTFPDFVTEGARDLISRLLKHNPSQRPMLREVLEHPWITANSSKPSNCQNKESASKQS
property: Ki (nM)
Hi! Could you send only the number? It should be in nM, unit omitted.

A selection of reference data follows.
CN(C)C[C@@H](c1ccccc1)n1cc(NC(=O)c2n[nH]c3c2CCC(C)(C)C3)cn1: 210
CN(C)CC[C@@H](c1cccc(Cl)c1)n1cc(NC(=O)c2n[nH]c3c2CCC(C)(C)C3)cn1: 290
N#Cc1cccc(Cn2cc(NC(=O)c3n[nH]c4ccccc34)cn2)c1: 870

**Query** I have this molecule here, O=C(Nc1cnn(Cc2ccccc2)c1)c1n[nH]c2c1CCC1(COC1)C2 , and I need its recorded Ki.
**Result** 2900

**Query** I have this molecule here, Cc1cccc([C@H](CCN(C)C)n2cc(NC(=O)c3n[nH]c4c3CCC(C)(C)C4)cn2)c1 , and I need its recorded Ki.
**Result** 500

**Query** I have this molecule here, N#Cc1cccc(Cn2cc(NC(=O)c3n[nH]c4c3CCCC4)cn2)c1 , and I need its recorded Ki.
**Result** 780

**Query** I have this molecule here, CC12Cc3[nH]nc(C(=O)Nc4cnn(Cc5ccccc5)c4)c3CC1C2 (racemic) , and I need its recorded Ki.
**Result** 440

**Query** I have this molecule here, CC1(C)CCc2c(C(=O)Nc3cnn([C@@H](CCS(C)(=O)=O)c4ccccc4)c3)n[nH]c2C1 , and I need its recorded Ki.
**Result** 2100
